test system: IgM, monoclonal (Homo sapiens); experiment: filter; details: 37.5 mM NaCl, 3.75 mM sodium citrate, pH 6.0
readout_label: Ka (log10 Ka (M-1))

CTCTCTCTTTTTCTCTCTCTTTTTGAGAGAG [RAD9] yielded Ka (log10 Ka (M-1)) of 6.79

TGGTTGGTTTTTGGAAGGATTTTTTCCTTCC [RAD3] yielded Ka (log10 Ka (M-1)) of 6.71

CCTCTTCTTTTTCTTCTC [RAD20] yielded Ka (log10 Ka (M-1)) of 7.02

GAGAGAGTTTTTGAGAGAGTTTTTCTCTCTC [RAD7] yielded Ka (log10 Ka (M-1)) of 6.89

TGGGCCGGTAACGGGTTACCGTAAGGTCCC [RAD10] yielded Ka (log10 Ka (M-1)) of 6.7

TTTTCGCGCGTTAACGCGCGAA [RAD16] yielded Ka (log10 Ka (M-1)) of 6.26

CCTTCCTTTGGAAGGTTG [RAD23] yielded Ka (log10 Ka (M-1)) of 6.08

CCTCTTCTTTTTCTTCTCCTTTTTGGAGAAG [RAD2] yielded Ka (log10 Ka (M-1)) of 6.73

TTTTCGCGCGTACGCGCGCGAA [RAD15] yielded Ka (log10 Ka (M-1)) of 6.19

CCCTCCCTGGGCTTTTTTTGATTTTTCTTAA [RAD4] yielded Ka (log10 Ka (M-1)) of 6.89

----------
test system: IgG, polyclonal (Mus musculus); assay: filter; conditions: 37.5 mM NaCl, 3.75 mM sodium citrate, pH 6.0
For each entry below, report its Ka (log10 Ka (M-1)) value.
I only need the number, thanks.

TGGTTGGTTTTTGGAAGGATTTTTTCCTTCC [RAD3] yielded Ka (log10 Ka (M-1)) of 7.69

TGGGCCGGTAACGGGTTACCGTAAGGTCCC [RAD10] yielded Ka (log10 Ka (M-1)) of 7.53

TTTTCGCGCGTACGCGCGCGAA [RAD15] yielded Ka (log10 Ka (M-1)) of 6.35

CCTCTTCTTTTTCTTCTCCTTTTTGGAGAAG [RAD2] yielded Ka (log10 Ka (M-1)) of 7.49

TTTTCGCGCGTTAACGCGCGAA [RAD16] yielded Ka (log10 Ka (M-1)) of 7.07

CCTTCCTTTGGAAGGTTG [RAD23] yielded Ka (log10 Ka (M-1)) of 6.77

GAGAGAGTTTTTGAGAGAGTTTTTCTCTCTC [RAD7] yielded Ka (log10 Ka (M-1)) of 7.69

CCCTCCCTGGGCTTTTTTTGATTTTTCTTAA [RAD4] yielded Ka (log10 Ka (M-1)) of 7.71

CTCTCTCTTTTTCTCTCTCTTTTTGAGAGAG [RAD9] yielded Ka (log10 Ka (M-1)) of 7.46

CCTCTTCTTTTTCTTCTC [RAD20] yielded Ka (log10 Ka (M-1)) of 8.3

----------
For each entry below, report its Ka (log10 Ka (M-1)) value.
tested on: IgG1, monoclonal (Homo sapiens); test: filter; settings: 37.5 mM NaCl, 3.75 mM sodium citrate, pH 6.0
I only need the number, thanks.

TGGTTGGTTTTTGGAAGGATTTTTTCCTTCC [RAD3] yielded Ka (log10 Ka (M-1)) of 7.45

CCTCTTCTTTTTCTTCTC [RAD20] yielded Ka (log10 Ka (M-1)) of 7.34

CCTTCCTTTGGAAGGTTG [RAD23] yielded Ka (log10 Ka (M-1)) of 6.14

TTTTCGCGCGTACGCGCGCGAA [RAD15] yielded Ka (log10 Ka (M-1)) of 6.39

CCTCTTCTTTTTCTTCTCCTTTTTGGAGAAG [RAD2] yielded Ka (log10 Ka (M-1)) of 7.04

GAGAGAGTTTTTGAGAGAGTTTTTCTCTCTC [RAD7] yielded Ka (log10 Ka (M-1)) of 7.3

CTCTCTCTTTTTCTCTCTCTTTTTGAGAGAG [RAD9] yielded Ka (log10 Ka (M-1)) of 7.05

----------
For each entry below, report its Ka (log10 Ka (M-1)) value.
system: IgG Fc fragment (Homo sapiens); assay: filter; settings: 37.5 mM NaCl, 3.75 mM sodium citrate, pH 6.0

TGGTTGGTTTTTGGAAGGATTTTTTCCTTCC [RAD3] yielded Ka (log10 Ka (M-1)) of 6.34

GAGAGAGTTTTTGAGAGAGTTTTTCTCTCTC [RAD7] yielded Ka (log10 Ka (M-1)) of 5.99

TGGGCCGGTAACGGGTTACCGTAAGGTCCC [RAD10] yielded Ka (log10 Ka (M-1)) of 5.92

----------
system: IgA, monoclonal (Homo sapiens); experiment: filter; conditions: 37.5 mM NaCl, 3.75 mM sodium citrate, pH 6.0
readout_label: Ka (log10 Ka (M-1))
I only need the number, thanks.

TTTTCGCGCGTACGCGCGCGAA [RAD15] yielded Ka (log10 Ka (M-1)) of 6.23

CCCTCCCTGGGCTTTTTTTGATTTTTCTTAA [RAD4] yielded Ka (log10 Ka (M-1)) of 7.66

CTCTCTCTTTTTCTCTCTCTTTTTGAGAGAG [RAD9] yielded Ka (log10 Ka (M-1)) of 6.95

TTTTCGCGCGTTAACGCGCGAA [RAD16] yielded Ka (log10 Ka (M-1)) of 6.46
